Reference source: ChEMBL document CHEMBL1201862

# Tested on: ACHN
# experimentDescription: NCI tumour cell line growth inhibition, 48 h
The source made the active and inactive calls. No stated cut-off is given here; in the data, active = GI50 up to about 1.1 µM and inactive = higher.
Choose the fitting class; nothing outside active, inactive is accepted.

Example cases with answers are listed next.
O=C1[C@H]2C(c3ccccc3)=NN(C(=O)c3ccccc3)[C@H]2C(=O)N1c1ccccc1 | inactive
COCCCN(Cc1cc(OC)c(OC)c(OC)c1)C(=S)Nc1cccc(Cl)c1 | inactive
C[N+]1(C)CC=C(N2CCOCC2)CC1 | inactive
C/C=C1\CN2CCc3c([nH]c4ccccc34)C2CC1CCO (centres undefined) | inactive

Now examine the next entry.
-- ask Which outcome was entered for the compound CC(C)C1CCC(=O)CC1CCCCC1CC(=O)CC1O[Si](C)(C)C(C)(C)C (centres undefined) in this test?
-- reply inactive

###

# System: NCI/ADR-RES
# experimentDescription: NCI tumour cell line growth inhibition, 48 h
Calls of active or inactive are those of the source. Cut-off read from the data, not from the text of the source: active = GI50 up to about 1.1 µM and inactive = higher. Bridge positions count the residues as written; N and C are the ends. Square brackets hold non-standard residues; d marks the D form. Peptide text beside a SMILES is read from it. * marks the point of attachment. Cya = N[CH](CS(=O)(=O)O)C(=O)O; X49 = CC(C)CCCCCCCC(O)CC(=O)*; GABA = NCCCC(=O)O
As shown below, each of these molecules has a reported GI50 value.

Here is how some molecules turned out for GI50.
CC1CC(=O)N(N(C)C)C2(C#N)C(=O)N=C(N)C12C#N (centres undefined) | > 100 µM (inactive)
Nc1nc(Cl)cc(Nc2cc(Cl)cc(Cl)c2)n1 | 21 µM (inactive)
NC(=O)Nc1ccc(C(=O)NCCCNC(=O)c2ccc(NC(N)=O)cc2)cc1 | > 100 µM (inactive)

# GI50 (molecule: O=C1CC(=O)N(C2CCCCC2)C(=O)N1c1ccccc1S(=O)(=O)Oc1ccccc1 ) is > 100 µM (inactive)

# GI50 (molecule: O=C(O)C1OC1C(=O)O (centres undefined) ) is > 100 µM (inactive)

# GI50 (molecule: N#Cc1c(O)cc(=O)n2c1[nH]c1ccccc12 ) is > 100 µM (inactive)

# GI50 (molecule: CC(C)CCCCCCCC(O)CC(=O)NC(CS(=O)(=O)O)C(=O)NC(CC(C)C)C(=O)NCCCC(=O)NC(Cc1c[nH]cn1)C(=O)NC(C)C(=O)NC1C(=O)NC(C(C)O)C(=O)NC(Cc2c[nH]cn2)C(=O)NC(C)C(=O)NC(C(C)O)C(=O)OC1C (centres undefined) (X49-[Cya]L[GABA]HATTHAT; ester 6-C; configuration not given here) ) is > 25 µM (inactive)

# GI50 (molecule: Oc1cc2c(cc1C(c1ccc3c(c1)OCO3)N1CCN(C(c3ccc4c(c3)OCO4)c3cc4c(cc3O)OCO4)CC1)OCO2 (centres undefined) ) is 19.2 µM (inactive)

# GI50 (molecule: O=C(CC(C(=O)c1ccco1)c1ccsc1)c1ccco1 (centres undefined) ) is 38.6 µM (inactive)

###

# Tested on: OVCAR-3
# experimentDescription: NCI tumour cell line growth inhibition, 48 h
Calls of active or inactive are those of the source. Cut-off read from the data, not from the text of the source: active = GI50 up to about 1.1 µM and inactive = higher.
Choose the fitting class; nothing outside Y for active, N for inactive is accepted.

Example cases with answers are listed next.
Cn1c(-c2ccccc2)cc(-c2ccc3c(c2)OCO3)c1-c1ccsc1 | N
NC(=O)/C(=C\c1ccncc1)c1cccc2ccccc12 | N
CCCCCCCCCCC[N+]1(Cc2ccccc2)CC2CCN(Cc3ccccc3)CC2C1 (stereo not given) | Y
COc1cc(C2C3=C(COC3=O)OC(C)(C)Oc3cc4c(cc32)OCO4)cc(OC)c1O (stereo not given) | Y

-- ask Which outcome was entered for the molecule O=C1CC(=O)N(C2CCCCC2)C(=O)N1c1ccccc1S(=O)(=O)Oc1ccccc1 in this test?
-- reply N
